system: RAW-Dual (murine macrophage reporter line); test: IRF reporter (Lucia luciferase) activity fold change vs agonist alone; higher = enhanced IRF activity; conditions: modulator concentration 10 µM; agonist: MPLA […]
Observation type: IRF reporter

* Oc1c2c(nc3cc(-c4ccc(Cl)cc4)nn13)CCS2 | 1.11
* COc1ccc(C2C3=C(CC(c4ccccc4)CC3=O)Nc3ccccc3N2C(=O)C(C)C)cc1OC (stereo unspecified) | 1.2
* CC(=O)C1CCC2C3CC=C4CC(O)CCC4(C)C3CCC12C (stereo unspecified) | 1.32
* CCOC(=O)C1=C(C)NC(C)=C(C(=O)OC)C1c1ccc(Cl)cc1 (stereo unspecified) | 1.26
* CC(=O)Nc1ccc2nc(NC(=O)c3ccco3)sc2c1 | 0.744
* Cc1ccc(OCCCOc2cccc3cccnc23)c(Cl)c1 | 1.05
